# Test system: Echinochloa crus-galli (ECHCG)
# protocol: Pre-emergence Test, ECHCG
# Format: in vivo
# measurement-parameters: 1000 g/ha, evaluated after 13 days
measured-metric: percentage damage caused to the plant, ECHCG

INSERT INTO measurements (compound, target_desc, experimental_value) VALUES
  ('O=C(O)c1nn(-c2ccc(Cl)cc2)c2cccc(Oc3ccc(F)cc3)c2c1=O [Compound P11]', 'Echinochloa crus-galli (ECHCG)', '0 (0=0%)'),
  ('CCOC(=O)c1nn(-c2ccc(OC(F)(F)F)cc2)c2cccc(C#N)c2c1=O [Compound P38]', 'Echinochloa crus-galli (ECHCG)', '5 (5=81-100%)'),
  ('O=C(O)c1nn(-c2ccc(OC(F)(F)F)cc2)c2cccc(-c3ncco3)c2c1=O [Compound P5]', 'Echinochloa crus-galli (ECHCG)', '0 (0=0%)'),
  ('O=C(O)c1nn(-c2ccc(OC(F)(F)F)cc2)c2cccc([N+](=O)[O-])c2c1=O [Compound P40]', 'Echinochloa crus-galli (ECHCG)', '2 (2=21-40%)');

Taken from patent US12649722B2.
